Molecular target: Insulin-regulated aminopeptidase (Homo sapiens)
Experiment: Inhibition of human recombinant IRAP expressed in baculovirus infected Sf9 cells using omniMMP fluorogenic substrate incubated for 5 to 10 mins by fluorescence spectrophotometry analysis
Answer each item with its documented IC50.
Numbers only, in µM.

// known answers, use as guide
CCCC[C@H](N)C(=O)Nc1cccc(C(=O)N[C@@H](Cc2c[nH]c3ccccc23)C(=O)OCc2ccccc2)c1    6.2
O=C(Cn1cccc(O)c1=O)N[C@@H](Cc1c[nH]c2ccccc12)C(=O)OCc1ccccc1    10.9
CCCC[C@H](N)C(=O)NNc1ccc(C(=O)N[C@@H](Cc2c[nH]c3ccccc23)C(=O)OCc2ccccc2)cc1    2.5

Form field: reported IC50 of CCCC[C@H](N)C(=O)Nc1cc(C(=O)N[C@@H](Cc2c[nH]c3ccccc23)C(=O)OCc2ccccc2)ccn1
8.8

----------
Molecular target: Insulin-regulated aminopeptidase (Homo sapiens)
Test: Competitive inhibition of human recombinant IRAP expressed in baculovirus infected sf9 cells using L-AMC as substrate incubated for 5 to 10 mins by Michaelis-Menten analysis
Experimental Readout: Ki (µM)
Answers are plain numbers, in µM.

O=C(Cn1cccc(O)c1=O)N[C@@H](Cc1c[nH]c2ccccc12)C(=O)OCc1ccccc1    5.7
CCCC[C@H](N)C(=O)NNc1ccc(C(=O)N[C@@H](Cc2c[nH]c3ccccc23)C(=O)OCc2ccccc2)cc1    1.3
CCCC[C@H](N)C(=O)NNc1cccc(C(=O)N[C@@H](Cc2c[nH]c3ccccc23)C(=O)OCc2ccccc2)c1    3.8

Now look at this entry.
Request: Ki, test system Insulin-regulated aminopeptidase (Homo sapiens), entry CCCC[C@H](N)C(=O)Nc1cccc(C(=O)N[C@@H](Cc2c[nH]c3ccccc23)C(=O)OCc2ccccc2)c1
3.2

----------
Molecular target: Insulin-regulated aminopeptidase (Homo sapiens)
Test: Competitive inhibition of human recombinant IRAP expressed in baculovirus infected sf9 cells using L-AMC as substrate incubated for 5 to 10 mins by Michaelis-Menten analysis
Experimental Readout: pKi
Answers are plain numbers, as −log10 of the molar value.

Worked set:
O=C(Cn1cccc(O)c1=O)NCCc1ccc(-c2ccccc2)cc1    4.89
CC(C)[C@H](NC(=O)Cn1cccc(O)c1=O)C(=O)OCc1ccccc1    4.75
CCCC[C@H](N)C(=O)Nc1cc(C(=O)N[C@@H](Cc2c[nH]c3ccccc23)C(=O)OCc2ccccc2)ccn1    5.34

From here, focus on the item given below.
Given COc1cccn(CC(=O)NCCc2ccc(-c3ccccc3)cc2)c1=S , state its recorded pKi.
5.06

----------
Biological target: Insulin-regulated aminopeptidase (Homo sapiens)
Assay: Inhibition of human recombinant IRAP expressed in baculovirus infected Sf9 cells using omniMMP fluorogenic substrate incubated for 5 to 10 mins by fluorescence spectrophotometry analysis
pIC50: −log10 of the molar value.
Label rule, in plain words: pIC50 of 5 and up is 1 (yes), under 5 is 0 (no).

# example entries with known answers
CC(C)[C@H](NC(=O)Cn1cccc(O)c1=O)C(=O)OCc1ccccc1    0 (no)
O=C(Cn1cccc(O)c1=O)NCCc1ccc(-c2ccccc2)cc1    0 (no)
N[C@@H](CCc1ccccc1)C(=O)NNc1ccc(C(=O)N[C@@H](Cc2c[nH]c3ccccc23)C(=O)OCc2ccccc2)cc1    1 (yes)

For the next question, use this compound.
Kindly determine if pIC50 recorded for COc1cccn(CC(=O)NCCc2ccc(-c3ccccc3)cc2)c1=S is above or exactly 5.
0 (no)
